System: HEK-293T
procedure summary: Incucyte cell viability with HEK293T; note: unitless GR value; below 1 slowed growth and below 0 cell loss
Type: toxicity, cell-based
test settings: human, 12 h, 10 µM, compound concentration 10 uM, replicate number 2
Please respond with reported Growth Rate for every item in the list.
Just the number.

IN: Endpoint output: Growth Rate of CCO[C@H](COc1ccc(C(F)(F)F)cc1)CSc1ccc(OCC(=O)[O-])c(C)c1.[Na+] . Value?
OUT: 0.82

IN: Endpoint output: Growth Rate of CC(C)c1ccc(/C=N/NC(=O)c2ccc(O)cc2)cc1 . Value?
OUT: 0.36

IN: Endpoint output: Growth Rate of C[C@@H](c1ccc(F)cc1)n1nnc2cnc3ccc(-c4ccc5ocnc5c4)cc3c21 . Value?
OUT: 0.99

IN: Endpoint output: Growth Rate of Cc1cc(SCc2sc(-c3ccc(C(F)(F)F)cc3)nc2C)ccc1OCC(=O)O [GW501516] . Value?
OUT: 0.95

IN: Endpoint output: Growth Rate of CCOC(=O)Nc1ccc2c(c1)N(C(=O)CN(CC)CC)c1ccccc1CC2 . Value?
OUT: 0.9

IN: Endpoint output: Growth Rate of CC[C@H](Nc1c(C#N)c(-c2ccc(-c3cccc(C)c3F)cc2)nc2cnccc12)C(=O)O [BAY-0361] . Value?
OUT: 0.98

IN: Endpoint output: Growth Rate of Cc1nccn1-c1ccc(Sc2cccc(C3(C(N)=O)CCOCC3)c2)cc1 . Value?
OUT: -0.38

---

Please respond with reported Growth Rate for every item in the list.
System: HEK-293T
procedure summary: Incucyte cell viability with HEK293T; note: unitless GR value; below 1 slowed growth and below 0 cell loss
Type: toxicity, cell-based
test settings: human, 18 h, 10 µM, compound concentration 10 uM, replicate number 1
Just the number.

IN: Endpoint output: Growth Rate of CC(C)(c1ccc(OCc2cccc(COc3ccc(C(=N)N)cc3)c2)cc1)c1ccc(O[C@@H]2O[C@H](C(=O)O)[C@@H](O)[C@H](O)[C@H]2O)cc1.O=C(O)C(F)(F)F . Value?
OUT: 0.87

IN: Endpoint output: Growth Rate of Clc1ccccc1C(c1ccccc1)(c1ccccc1)n1cccn1 . Value?
OUT: 0.83

IN: Endpoint output: Growth Rate of COc1cc(C(=O)NCCOCCOCCOCCC(=O)Nc2cccc3c2C(=O)N(C2CCC(=O)NC2=O)C3=O)ccc1Nc1ncc(C(F)(F)F)c(Oc2cccc3c2C(=O)CC3)n1 (stereo unspecified) . Value?
OUT: 0.71

IN: Endpoint output: Growth Rate of O=C(Nc1ccc(Cl)c(-c2ccccn2)c1)c1cccc(COc2ccc(Br)cc2CNCCO)c1.O=CO . Value?
OUT: -0.3

IN: Endpoint output: Growth Rate of CC(C)(O)c1ccc2c(c1)ncn2-c1cccc(-c2ccccc2C#N)c1 . Value?
OUT: 0.65

IN: Endpoint output: Growth Rate of CC(=O)c1ccc2c(c1)/C(=C(/NC1CCN(C)CC1)c1ccc3c(c1)OCO3)C(=O)N2 . Value?
OUT: -0.5

---

System: Fibroblast
procedure summary: Incucyte cell viability with human fibroblast; note: unitless GR value; below 1 slowed growth and below 0 cell loss
Type: toxicity, cell-based
test settings: 6 h, 10 µM, compound concentration 10 uM, replicate number 1
readout: Growth Rate

IN: Endpoint output: Growth Rate of Fc1ccc(-c2c3cccc(C(F)(F)F)c3nn2Cc2ccc(F)cc2Cl)cc1 . Value?
OUT: -0.18

IN: Endpoint output: Growth Rate of O=C(Cc1ccccc1)Nc1nnc(N2CC[C@@H]3[C@H]2CN3c2cccnn2)s1 . Value?
OUT: 0.66

IN: Endpoint output: Growth Rate of CCC(=O)Nc1cc(Nc2cc(NC3CC3)n3ncc(C#N)c3n2)ccc1C . Value?
OUT: 0.76

IN: Endpoint output: Growth Rate of Cc1cc(-c2nncc3c(C(C)(C)C)c(OCc4ncnn4C)nn23)no1 . Value?
OUT: 1

IN: Endpoint output: Growth Rate of Oc1cccc(Nc2ccnc3[nH]c4ccccc4c23)c1 . Value?
OUT: -0.78

IN: Endpoint output: Growth Rate of CCCCCNC(=O)N1CCC(CN(Cc2ccc(Cl)cc2)Cc2ccc([N+](=O)[O-])s2)C1 (stereo unspecified) . Value?
OUT: 0.11

---

Tested on: Fibroblast
procedure summary: Incucyte cell viability with human fibroblast; note: unitless GR value; below 1 slowed growth and below 0 cell loss
Format: toxicity, cell-based
test settings: 24 h, 10 µM, compound concentration 10 uM, replicate number 1
Please respond with reported Growth Rate for every item in the list.
Just the number.

IN: Endpoint output: Growth Rate of O=C(Nc1ccc(Cl)c(-c2ccccn2)c1)c1cccc(COc2ccc(Br)cc2CNCCO)c1.O=CO . Value?
OUT: 0.25

IN: Endpoint output: Growth Rate of O=C(O)C[C@H]1CCn2c1c(Sc1ccc(Cl)cc1)c1ccc(F)cc12 . Value?
OUT: 0.89

IN: Endpoint output: Growth Rate of CC(C)c1cnn2c(NCc3ccccc3)cc(NCCCCCCN)nc12.Cl . Value?
OUT: 1

IN: Endpoint output: Growth Rate of CNc1ncc2cc(-c3ccc(-c4ncccc4F)cc3Cl)c(=O)n(C[C@H]3OC[C@H](N)CO3)c2n1 . Value?
OUT: 0.8

IN: Endpoint output: Growth Rate of CC1CNCCc2c1nc1ccnn1c2N1CC(C(=O)N2CCC(C)(C)C2)C1 (configuration not stated) . Value?
OUT: 0.84

IN: Endpoint output: Growth Rate of Nc1ccc(S(=O)(=O)Nc2ccnn2-c2ccccc2)cc1 . Value?
OUT: 0.6

IN: Endpoint output: Growth Rate of CC(C)(O)[C@H]1CC[C@H](Nc2ccc3ncc(-c4cccc(C(F)(F)F)c4)n3n2)CC1 . Value?
OUT: -0.39

---

System: HEK-293T
procedure summary: Incucyte cell viability with HEK293T; note: unitless GR value; below 1 slowed growth and below 0 cell loss
Assay type: toxicity, cell-based
test settings: human, 24 h, 10 µM, compound concentration 10 uM, replicate number 1
readout: Growth Rate
Just the number.

IN: Endpoint output: Growth Rate of CC(C)c1nc2c(c3c1[C@@H](c1ccc(C(F)(F)F)cc1)OC31CCOCC1)[C@@H](O)CC(C)(C)C2.Cl . Value?
OUT: 0.78

IN: Endpoint output: Growth Rate of CC(C)(C)C1CCc2c(sc(NC(=O)c3ccco3)c2C(=O)O)C1 (stereo not drawn) . Value?
OUT: -0.21

IN: Endpoint output: Growth Rate of CC/C(=C(\c1ccccc1)c1ccc(OCCN(C)C)cc1)c1ccccc1.O=C(O)CC(O)(CC(=O)O)C(=O)O [TAMOXIFEN CITRATE] . Value?
OUT: 0.56

IN: Endpoint output: Growth Rate of Cn1c(C(=O)N[C@@H](CO)c2ccc(C(=O)O)cc2)cc2cc(Cl)ccc21 . Value?
OUT: 0.96

IN: Endpoint output: Growth Rate of Cc1cc2ncnn2cc1Nc1ncc2c(n1)n(C1CCOCC1)c(=O)n2C [AZD-7648] . Value?
OUT: 0.93

IN: Endpoint output: Growth Rate of NS(=O)(=O)c1cncc(-c2nc(NCc3ccccn3)c3c(-c4ccccc4)cccc3n2)c1 [BMS-919373] . Value?
OUT: 1

IN: Endpoint output: Growth Rate of C=CC(=O)Nc1ccc2[nH]c(=O)n(C3CCN(Cc4ccc(-c5ccc6c(c5)NC(=O)CO6)cc4)CC3)c2c1 [RL2578] . Value?
OUT: 0.26

IN: Endpoint output: Growth Rate of COc1cc(C(=O)NCCOCCOCCOCC(=O)N[C@H](C(=O)N2C[C@H](O)C[C@H]2C(=O)NCc2ccc(-c3scnc3C)cc2)C(C)(C)C)ccc1Nc1ncc(C(F)(F)F)c(Oc2cccc3c2C(=O)CC3)n1 . Value?
OUT: 0.03

IN: Endpoint output: Growth Rate of O=C(Nc1cccc(C(F)(F)F)c1)c1cccc(-n2cc(-c3ccco3)nn2)c1 . Value?
OUT: 0.76

IN: Endpoint output: Growth Rate of CN(C)C/C=C/C(=O)Nc1cccc(C(=O)Nc2ccc(Nc3nccc(-c4cccnc4)n3)cc2)c1 . Value?
OUT: -0.55

IN: Endpoint output: Growth Rate of Oc1c(CN2CCCC2)cc(COCc2ccccc2)c2cccnc12 . Value?
OUT: -0.18

IN: Endpoint output: Growth Rate of CN1C(=O)c2ccccc2N(C)c2nc(Nc3cnn(C4CCNCC4)c3)ncc21 . Value?
OUT: 0.37

IN: Endpoint output: Growth Rate of COCCCS(=O)(=O)c1cc(C)c(-c2ccc(F)c3c2CC[C@H]3Oc2ccc3c(c2)OC[C@H]3CC(=O)O)c(C)c1 . Value?
OUT: 0.81

IN: Endpoint output: Growth Rate of CC(C)(C)c1cc(NC(=O)c2csc(Nc3ccc(Cl)cc3)n2)no1 . Value?
OUT: 0.97

IN: Endpoint output: Growth Rate of O=C1Nc2ccc(C(=O)c3ccco3)cc2C1=Cc1cc(Cl)c(O)c(Cl)c1 [GW406108X] . Value?
OUT: 0.24

IN: Endpoint output: Growth Rate of CN(C(=O)CCOCCOCCOCCOCCNc1cccc2c1C(=O)N(C1CCC(=O)NC1=O)C2=O)[C@H]1CC[C@@]2(C)[C@@H](CC[C@@H]3[C@@H]2CC[C@]2(C)[C@@H](c4ccc5ccncc5c4)CC[C@@H]32)C1 (stereo partly drawn) . Value?
OUT: 0.88

IN: Endpoint output: Growth Rate of COc1ccc2nc3ccc(OC)cc3c(SCCCN)c2c1.Cl . Value?
OUT: -0.41

IN: Endpoint output: Growth Rate of CN(C)c1cc2c(Nc3ccc4c(cnn4Cc4ccccc4)c3)ncnc2cn1 [GW282974X] . Value?
OUT: 0.59

IN: Endpoint output: Growth Rate of CC(C1CC2CCC1C2)n1c(S)nnc1-c1ccco1 (stereo not drawn) . Value?
OUT: 0.75

IN: Endpoint output: Growth Rate of Nc1ncc2c(n1)-c1c([nH]c3ccc(C4CC4)cc13)CCCC2 . Value?
OUT: 0.71

IN: Endpoint output: Growth Rate of NC1(c2ccc(-c3nc4c(O)ccnn4c3-c3ccccc3)cc2)CCC1 . Value?
OUT: 0.95

IN: Endpoint output: Growth Rate of CNc1nc(-c2ccc3c(N)n[nH]c3c2)cc(N2C[C@@H](C(=O)NC3CCCCC3)CC[C@H]2C)n1 . Value?
OUT: 0.72

IN: Endpoint output: Growth Rate of COc1ccc(COc2ccc(Cc3cnc(N)nc3N)cc2OC)cc1 [GW632580X] . Value?
OUT: 0.91

IN: Endpoint output: Growth Rate of Cc1cc(C2CCCNC2)ccc1Nc1ncc(Br)c(NCc2cccc3c2C(C)(C)C(=O)N3)n1 (stereo not drawn) . Value?
OUT: -0.01

IN: Endpoint output: Growth Rate of CN[C@@H]1CC[C@@H](c2ccc(Cl)c(Cl)c2)c2ccccc21.Cl . Value?
OUT: 0.2

IN: Endpoint output: Growth Rate of CNc1nc(NCc2ncccn2)c2c(-c3ccc4ncccc4c3)c[nH]c2n1 . Value?
OUT: 0.84

IN: Endpoint output: Growth Rate of CC(=O)N1CCN(c2ccc(OCC3COC(Cn4ccnc4)(c4ccc(Cl)cc4Cl)O3)cc2)CC1 (stereo not drawn) [KETOCONAZOLE] . Value?
OUT: 0.6

IN: Endpoint output: Growth Rate of O=C(NC[C@@H]1[C@H]2CN(C(=O)OCc3cc(C(F)(F)F)cc(C(F)(F)F)c3)C[C@@H]12)c1ccc2[nH]nnc2c1 [BI 2545] . Value?
OUT: 0.76
